The origin of these recorded values is patent US20210046071A1.

assay: Pharmacokinetic studies in human, Compound I in plasma by LC/MS/MS; format: in vivo; conditions: human, plasma, iv, 325 mg/m2, Group 8, 325 mg/m^2 IV, Day 1, mean, n = 3
propertyMeasured: clearance

State the recorded clearance for this entry: Cc1cnc(CNC(=O)c2c(=O)c3ccc(N4CCCN(C)CC4)nc3n3c2sc2ccccc23)cn1
322 mL/min

###

experiment: Pharmacokinetic studies in human, Compound I in plasma by LC/MS/MS; type: in vivo; details: human, plasma, iv, 650 mg/m2, Group 10, 650 mg/m^2 IV, Day 15, mean, n = 5
propertyMeasured: Cmax (ng/mL)
The response must be a number in ng/mL with no trailing unit.

State the recorded Cmax for this entry: Cc1cnc(CNC(=O)c2c(=O)c3ccc(N4CCCN(C)CC4)nc3n3c2sc2ccccc23)cn1 [Compound I]
4170

###

experiment: Pharmacokinetic studies in human, Compound I in plasma by LC/MS/MS; type: in vivo; conditions: human, plasma, iv, 200 mg/m2, Group 4, 200 mg/m^2 IV, Day 8, mean, n = 4; read-out: AUC∞
propertyMeasured: AUC(0-inf) (ng·h/mL)
The response must be a number in ng·h/mL with no trailing unit.

State the recorded AUC(0-inf) for this entry: Cc1cnc(CNC(=O)c2c(=O)c3ccc(N4CCCN(C)CC4)nc3n3c2sc2ccccc23)cn1
16200

###

experiment: Pharmacokinetic studies in human, Compound I in plasma by LC/MS/MS; type: in vivo; details: human, plasma, iv, 200 mg/m2, Group 4, 200 mg/m^2 IV, Day 1, mean, n = 4
propertyMeasured: clearance
Please provide the amount together with its unit, number first.

State the recorded clearance for this entry: Cc1cnc(CNC(=O)c2c(=O)c3ccc(N4CCCN(C)CC4)nc3n3c2sc2ccccc23)cn1
505 mL/min

###

System: EOL-1
Experiment: Alamar Blue cell viability assay, EOL-1
Type: cell-based
Conditions: Homo sapiens, EOL1; EOL-1, Leukemia
Method: The effect of Compound I on cell viability was assessed by Alamar Blue assay of metabolic activity in various cancer cell lines.
propertyMeasured: pEC50
Worth noting: pEC50 values are minus log10 of concentrations stated in mol/L.

State the recorded pEC50 for this entry: Cc1cnc(CNC(=O)c2c(=O)c3ccc(N4CCCN(C)CC4)nc3n3c2sc2ccccc23)cn1
8.52

###

assay: Pharmacokinetic studies in human, Compound I in plasma by LC/MS/MS; format: in vivo; conditions: human, plasma, iv, 650 mg/m2, Group 10, 650 mg/m^2 IV, Day 1, mean, n = 5
propertyMeasured: Vd (L)
The response must be a number in L with no trailing unit.

State the recorded Vd for this entry: Cc1cnc(CNC(=O)c2c(=O)c3ccc(N4CCCN(C)CC4)nc3n3c2sc2ccccc23)cn1
3700

###

experiment: Pharmacokinetic studies in human, Compound I in plasma by LC/MS/MS; type: in vivo; conditions: human, plasma, iv, 250 mg/m2, Group 5, 250 mg/m^2 IV, Day 1, mean, n = 3; read-out: T1/2 (converted)
propertyMeasured: half-life (h)
The response must be a number in h with no trailing unit.

State the recorded half-life for this entry: Cc1cnc(CNC(=O)c2c(=O)c3ccc(N4CCCN(C)CC4)nc3n3c2sc2ccccc23)cn1
47.9

###

assay: Pharmacokinetic studies in human, Compound I in plasma by LC/MS/MS; format: in vivo; settings: human, plasma, iv, 150 mg/m2, Group 3, 150 mg/m^2 IV, Day 1, mean, n = 4; read-out: AUC∞
propertyMeasured: AUC(0-inf) (ng·h/mL)
The response must be a number in ng·h/mL with no trailing unit.

State the recorded AUC(0-inf) for this entry: Cc1cnc(CNC(=O)c2c(=O)c3ccc(N4CCCN(C)CC4)nc3n3c2sc2ccccc23)cn1
20000

###

assay: Pharmacokinetic studies in human, Compound I in plasma by LC/MS/MS; type: in vivo; details: human, plasma, iv, 150 mg/m2, Group 3, 150 mg/m^2 IV, Day 8, mean, n = 4
propertyMeasured: Tmax (min)
The response must be a number in min with no trailing unit.

State the recorded Tmax for this entry: Cc1cnc(CNC(=O)c2c(=O)c3ccc(N4CCCN(C)CC4)nc3n3c2sc2ccccc23)cn1
38.8

###

test system: BJ-hTERT; test: Alamar Blue cell viability assay, BJ-hTERT; format: cell-based; conditions: Normal
propertyMeasured: EC50 (µM)
The response must be a number in µM with no trailing unit.

State the recorded EC50 for this entry: Cc1cnc(CNC(=O)c2c(=O)c3ccc(N4CCCN(C)CC4)nc3n3c2sc2ccccc23)cn1
5.17

###

tested on: CCD-1096Sk; assay: Alamar Blue cell viability assay, CCD-1096Sk; type: cell-based; details: Normal
propertyMeasured: EC50
Please provide the amount together with its unit, number first.

State the recorded EC50 for this entry: Cc1cnc(CNC(=O)c2c(=O)c3ccc(N4CCCN(C)CC4)nc3n3c2sc2ccccc23)cn1
5.26 µM

###

Experiment: Pharmacokinetic studies in human, Compound I in plasma by LC/MS/MS
Format: in vivo
Conditions: human, plasma, iv, 250 mg/m2, Group 5, 250 mg/m^2 IV, Day 8, mean, n = 3
Description: […] Levels of Compound I in patient's plasma were analyzed by liquid chromatography tandem mass spectrometry (LC/MS/MS) assay. […] The concentrations of Compound I in human plasma samples collected from subjects of as discussed above. Compound I concentrations in plasma samples were measured based on 9 levels of calibration standards from 5.00 to 5000 ng/mL, and 3 levels of QC at 15.0 ng/mL (low), 2500 ng/mL (mid), and 4000 ng/mL (high). […]
propertyMeasured: Cmax (ng/mL)
The response must be a number in ng/mL with no trailing unit.

State the recorded Cmax for this entry: Cc1cnc(CNC(=O)c2c(=O)c3ccc(N4CCCN(C)CC4)nc3n3c2sc2ccccc23)cn1
771

###

test: Pharmacokinetic studies in human, Compound I in plasma by LC/MS/MS; type: in vivo; details: human, plasma, intravenous, Groups 8-10, Day 15, range of group means; read-out: Total exposures (AUC∞)
propertyMeasured: AUC(0-inf)

State the recorded AUC(0-inf) for this entry: Cc1cnc(CNC(=O)c2c(=O)c3ccc(N4CCCN(C)CC4)nc3n3c2sc2ccccc23)cn1
32500 to 62200 ng·h/mL

###

Assay: Pharmacokinetic studies in human, Compound I in plasma by LC/MS/MS
Assay type: in vivo
Settings: human, plasma, iv, 150 mg/m2, Group 3, 150 mg/m^2 IV, Day 1, mean, n = 4
Description: […] Levels of Compound I in patient's plasma were analyzed by liquid chromatography tandem mass spectrometry (LC/MS/MS) assay. […] The concentrations of Compound I in human plasma samples collected from subjects of as discussed above. Compound I concentrations in plasma samples were measured based on 9 levels of calibration standards from 5.00 to 5000 ng/mL, and 3 levels of QC at 15.0 ng/mL (low), 2500 ng/mL (mid), and 4000 ng/mL (high). […]
propertyMeasured: Vd (L)
The response must be a number in L with no trailing unit.

State the recorded Vd for this entry: Cc1cnc(CNC(=O)c2c(=O)c3ccc(N4CCCN(C)CC4)nc3n3c2sc2ccccc23)cn1 [Compound I]
900

###

assay: Pharmacokinetic studies in human, Compound I in plasma by LC/MS/MS; format: in vivo; settings: human, plasma, iv, 475 mg/m2, Group 9, 475 mg/m^2 IV, Day 15, mean, n = 4; read-out: T1/2 (converted)
propertyMeasured: half-life (h)
The response must be a number in h with no trailing unit.

State the recorded half-life for this entry: Cc1cnc(CNC(=O)c2c(=O)c3ccc(N4CCCN(C)CC4)nc3n3c2sc2ccccc23)cn1 [Compound I]
59

###

experiment: Pharmacokinetic studies in human, Compound I in plasma by LC/MS/MS; type: in vivo; settings: human, plasma, iv, 650 mg/m2, Group 10, 650 mg/m^2 IV, Day 15, mean, n = 5; read-out: T1/2 (converted)
propertyMeasured: half-life (h)
The response must be a number in h with no trailing unit.

State the recorded half-life for this entry: Cc1cnc(CNC(=O)c2c(=O)c3ccc(N4CCCN(C)CC4)nc3n3c2sc2ccccc23)cn1
93.6

###

assay: Pharmacokinetic studies in human, Compound I in plasma by LC/MS/MS; assay type: in vivo; conditions: human, plasma, iv, 50 mg/m2, Group 1, 50 mg/m^2 IV, Day 1, mean, n = 4
propertyMeasured: Tmax (min)
The response must be a number in min with no trailing unit.

State the recorded Tmax for this entry: Cc1cnc(CNC(=O)c2c(=O)c3ccc(N4CCCN(C)CC4)nc3n3c2sc2ccccc23)cn1 [Compound I]
45.5

###

assay: Pharmacokinetic studies in human, Compound I in plasma by LC/MS/MS; assay type: in vivo; conditions: human, plasma, iv, 475 mg/m2, Group 7, 475 mg/m^2 IV, Day 8, mean, n = 3
propertyMeasured: clearance (mL/min)
The response must be a number in mL/min with no trailing unit.

State the recorded clearance for this entry: Cc1cnc(CNC(=O)c2c(=O)c3ccc(N4CCCN(C)CC4)nc3n3c2sc2ccccc23)cn1
482
